Please go through the items and note down their pEC50.
# assay.target: recombinant F508del V470 CFTR in Fischer rat thyroid (FRT) cells (Homo sapiens, UniProt P13569, DEL508-508)
# Sequence (P13569 with tags, fused parts or gaps DEL508-508): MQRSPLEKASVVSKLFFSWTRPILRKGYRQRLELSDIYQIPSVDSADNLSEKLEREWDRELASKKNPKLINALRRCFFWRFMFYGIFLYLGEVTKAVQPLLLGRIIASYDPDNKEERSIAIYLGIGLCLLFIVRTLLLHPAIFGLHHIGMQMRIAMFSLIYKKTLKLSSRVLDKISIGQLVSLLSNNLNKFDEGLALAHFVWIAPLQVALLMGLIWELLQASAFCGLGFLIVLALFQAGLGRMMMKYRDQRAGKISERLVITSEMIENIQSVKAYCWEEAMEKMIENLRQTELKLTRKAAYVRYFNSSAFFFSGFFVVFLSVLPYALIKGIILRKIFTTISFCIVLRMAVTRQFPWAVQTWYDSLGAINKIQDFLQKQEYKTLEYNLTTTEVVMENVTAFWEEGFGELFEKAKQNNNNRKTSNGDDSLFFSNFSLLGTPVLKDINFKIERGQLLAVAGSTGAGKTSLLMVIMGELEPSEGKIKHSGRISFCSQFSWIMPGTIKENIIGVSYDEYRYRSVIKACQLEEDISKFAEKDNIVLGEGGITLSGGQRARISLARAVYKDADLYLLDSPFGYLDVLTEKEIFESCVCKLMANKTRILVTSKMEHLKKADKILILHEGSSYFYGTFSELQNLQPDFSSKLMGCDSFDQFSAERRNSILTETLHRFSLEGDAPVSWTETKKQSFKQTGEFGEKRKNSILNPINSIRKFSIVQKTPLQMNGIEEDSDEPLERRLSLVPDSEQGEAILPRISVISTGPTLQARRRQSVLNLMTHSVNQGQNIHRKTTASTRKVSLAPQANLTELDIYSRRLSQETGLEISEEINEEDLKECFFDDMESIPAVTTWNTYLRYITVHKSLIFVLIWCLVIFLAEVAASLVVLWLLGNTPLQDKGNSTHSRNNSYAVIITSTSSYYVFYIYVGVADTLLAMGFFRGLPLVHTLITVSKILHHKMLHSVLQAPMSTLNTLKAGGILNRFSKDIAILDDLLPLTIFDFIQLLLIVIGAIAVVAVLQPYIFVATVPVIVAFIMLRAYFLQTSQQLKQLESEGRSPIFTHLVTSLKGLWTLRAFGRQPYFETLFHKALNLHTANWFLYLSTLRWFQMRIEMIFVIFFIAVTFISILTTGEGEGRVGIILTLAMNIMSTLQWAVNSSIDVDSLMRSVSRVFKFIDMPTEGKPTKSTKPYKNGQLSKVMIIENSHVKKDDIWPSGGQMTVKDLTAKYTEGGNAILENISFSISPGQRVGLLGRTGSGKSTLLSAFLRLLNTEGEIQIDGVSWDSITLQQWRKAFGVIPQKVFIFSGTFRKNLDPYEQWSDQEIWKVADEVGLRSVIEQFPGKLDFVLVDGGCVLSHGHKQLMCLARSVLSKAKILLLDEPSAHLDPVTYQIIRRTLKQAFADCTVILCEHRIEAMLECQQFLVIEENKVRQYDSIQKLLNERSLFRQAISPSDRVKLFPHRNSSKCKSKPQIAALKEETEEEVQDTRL
# measurement.protocol: FRT ion flux assay of F508del CFTR potentiation
# condition.context: FRT cells expressing F508del V470 CFTR, forskolin 20 uM, 27° C. pre-incubation
By convention, pEC50 is the negative base-10 log of a molar concentration.

I'd like to know its pEC50. The molecule in question is Cn1ncc2cc(-c3cn(Cc4cn(-c5ccccc5F)nn4)c4ncnc(N)c34)ccc21 [Example 86] 6.27

Item under review: CCC(c1cn(-c2ccccc2F)nn1)n1cc(-c2cnc(N(C)C)nc2)c2c(N)ncnc21 (single isomer, unassigned; enantiomer 2) [Example 146] . Reported pEC50? 5.93

Bench note: what pEC50 did COc1ccc(-c2cn(C(C)c3cn(-c4ccccc4F)nn3)c3ncnc(N)c23)c(OC)c1 (stereo not shown) [Example 87] show? 6.99

Using the record for CCC(c1cn(-c2ccc(F)cc2F)nn1)n1cc(-c2cc(F)cnc2OC)c2c(N)ncnc21 (single isomer, unassigned; enantiomer 1) [Example 163] , report its pEC50. 6.53

I would be grateful if you could share the reported pEC50 for Nc1ncnc2c1c(-c1ccc(Cl)cc1)c(Br)n2Cc1cn(-c2cccc(F)c2)nn1 [Example 319] . 6.71

Query (molecule): CC(c1cnn(-c2ccccc2F)c1)n1c(C#N)c(-c2cnc(C(F)(F)F)nc2)c2c(N)ncnc21 (single isomer, unassigned) [Example 5] ; field requested: pEC50 8.11

Suppose we examine the molecule CC[C@@H](c1cn(-c2ccc(F)cc2F)nn1)n1cc(-c2cnc(C(F)(F)F)nc2)c2c(N)ncnc21 (single isomer, unassigned) [Example 161] ; what pEC50 value has been reported? 8.07

Fill blank: measured pEC50 of the molecule CCC(c1cn(-c2ccc(F)cc2F)nn1)n1cc(-c2cnc(C(F)F)nc2)c2c(N)ncnc21 (single isomer, unassigned; enantiomer 2) [Example 168] is ____. 5.53

Quick check: pEC50 of CC(c1cn(-c2ccccc2F)nn1)n1cc(C2CCC2)c2c(N)ncnc21 (stereo not shown) [Example 247] ? 7.79

Fill in the blank: the reported pEC50 of CC(c1cn(-c2ccccc2F)nn1)n1cc(-c2ccc(OC3CC3)nc2)c2c(N)ncnc21 (single isomer, unassigned; enantiomer 2) [Example 120] is ____. 7.48

Quick one: pEC50 for CC(c1cnn(-c2ccccc2F)c1)n1c(C#N)c(-c2cnc(C(F)F)nc2)c2c(N)ncnc21 (single isomer, unassigned) [Example 1] ? 9.26

# lookup: pEC50 of CC(c1cc(-c2ccccc2F)no1)n1cc(-c2ccc3nonc3c2)c2c(N)ncnc21 (stereo not shown) [Example 104] 6.48

Param item = Nc1ncnc2c1c(-c1ccc3[nH]ccc3c1)cn2Cc1cn(-c2ccccc2F)nn1 [Example 81] ; retrieve measured pEC50. 6.42

---

# assay.target: recombinant F508del V470 CFTR in Fischer rat thyroid (FRT) cells (Homo sapiens, UniProt P13569, DEL508-508)
# measurement.protocol: FRT ion flux assay of F508del CFTR potentiation
# condition.context: FRT cells expressing F508del V470 CFTR, forskolin 20 uM, 27° C. pre-incubation
Task for the reader: assign each of the following compounds its reported pEC50.
API: returns pEC50 as number; meaning -log10 of concentration in mol/L.

Need pEC50 of CCC(c1cn(-c2cc(C(F)(F)F)ccn2)nn1)n1cc(-c2cncnc2OC)c2c(N)ncnc21 (stereo not shown) [Example 242] , thanks. 6.42

pEC50 lookup needed for CCC(c1cn(-c2ccccc2)nn1)n1cc(-c2cncnc2OC)c2c(N)ncnc21 (single isomer, unassigned; enantiomer 2) [Example 128] , thanks. 7.72

Any idea what its pEC50 is? The compound is Nc1ncnc2c1c(-c1ccc(Cl)cc1)cn2Cc1cnn(-c2ccccc2F)c1 [Example 262] 6.50

What value of pEC50 has been reported for the following compound? Nc1ncnc2c1c(-c1cnco1)cn2Cc1cn(-c2ccccc2F)nn1 [Example 197] 6.59

Quick one: pEC50 for CC(c1cc(-c2cccc(F)c2)no1)n1cc(-c2ccc(Cl)cc2)c2c(N)ncnc21 (stereo not shown) [Example 267] ? 5.95

Item under review: COc1ncccc1-c1cn(Cc2nnc(-c3ccccc3)[nH]2)c2ncnc(N)c12 [Example 272] . Reported pEC50? 6.40

Value lookup for pEC50; key = COc1cccc(-c2cc(C(C)n3cc(-c4ccc(Cl)cc4)c4c(N)ncnc43)on2)c1 (stereo not shown) [Example 261] 6.77

Could you tell me which pEC50 is on file for CC(=O)c1ccc(-c2cn(C(C)c3cn(-c4ccccc4F)nn3)c3ncnc(N)c23)s1 (stereo not shown) [Example 91] ? 6.95

Give the measured pEC50 of CC(c1cn(-c2ccccc2F)nn1)n1cc(-c2ccc(OC3CC3)cc2)c2c(N)ncnc21 (stereo not shown) [Example 212] . 7.17

Look up pEC50: CCC(c1cn(-c2ccccc2F)nn1)n1cc(-c2ccc(Cl)cc2)c2c(N)ncnc21 (single isomer, unassigned; enantiomer 1) [Example 131] 6.21

Please report the recorded pEC50 for CCC(c1cn(-c2ccccc2F)nn1)n1cc(-c2cnc(C(F)(F)F)nc2)c2c(N)ncnc21 (stereo not shown) [Example 224] . 8.04

Which measured pEC50 value corresponds to COc1ncccc1-c1cn(C(C)c2cn(-c3ccccc3F)nn2)c2ncnc(N)c12 (single isomer, unassigned) [Example 113] ? 6.08

# lookup: pEC50 of CC(c1cn(-c2ccccc2F)nn1)n1cc(C2CC2)c2c(N)ncnc21 (single isomer, unassigned) [Example 108] 5.92

Find the recorded pEC50 belonging to CCC(c1cn(-c2ccc(F)c(F)c2)nn1)n1cc(-c2cnc(OC)c(F)c2)c2c(N)ncnc21 (single isomer, unassigned; enantiomer 1) [Example 157] and report it. 6.36

Could you share which pEC50 value was measured for CSc1ccc(-c2cn(C(C)c3cn(-c4ccccc4F)nn3)c3ncnc(N)c23)cc1 (stereo not shown) [Example 88] ? 7.38

Looking for the measured pEC50 of CC(c1cn(-c2ccccc2F)nn1)n1cc(-c2cccc(C(F)(F)F)c2)c2c(N)ncnc21 (stereo not shown) [Example 97] , can you help? 6.64

Tell me the measured pEC50 of COc1cc2c(cc1-c1cn(C(C)c3cnc(-c4ccccc4F)[nH]3)c3ncnc(N)c13)CCC2 (stereo not shown) [Example 69] , please. 6.04

Entry COc1ncccc1-c1cn(Cc2cn(-c3ccccc3F)nn2)c2nc(C)nc(N)c12 [Example 202] : reported pEC50 = ? 6.04

Quick one: pEC50 for CCC(c1cn(-c2ccc(F)cc2F)nn1)n1c(C#N)c(-c2cnc(C(F)(F)F)nc2)c2c(N)ncnc21 (single isomer, unassigned) [Example 17] ? 7.34

Consider the compound CC(c1cnn(-c2ccc(F)cc2F)c1)n1c(C#N)c(-c2cnc(C(F)(F)F)nc2)c2c(N)ncnc21 (single isomer, unassigned) [Example 8] and give its measured pEC50. 7.45

Bench note: what pEC50 did COc1ncncc1-c1cn(C(c2cn(-c3ccccc3F)nn2)C2CC2)c2ncnc(N)c12 (single isomer, unassigned; enantiomer 1) [Example 174] show? 7.71

Request the reported pEC50 associated with Cc1ccc2cc(F)c(-c3cn(C(C)c4cnc(-c5ccccc5F)[nH]4)c4ncnc(N)c34)cc2n1 (stereo not shown) [Example 63] 5.34

Name the reported pEC50 value associated with the compound CCC(c1cn(-c2ccccc2F)nn1)n1cc(-c2cnc(C(F)F)nc2)c2c(N)ncnc21 (single isomer, unassigned; enantiomer 1) [Example 143] 7.98

Fill blank: measured pEC50 of the compound CC(=O)c1ccc(-c2cn(C(C)c3cn(-c4ccccc4F)nn3)c3ncnc(N)c23)cc1 (stereo not shown) [Example 96] is ____. 7.01

Item N#Cc1c(-c2cnc(C(F)F)nc2)c2c(N)ncnc2n1Cc1cnn(-c2ccccc2F)c1 [Example 30] has what recorded pEC50? 9.23

Reported pEC50, compound CC(c1cnn(-c2ccccc2F)c1)n1c(C#N)c(-c2cnc(C(F)F)nc2)c2c(N)ncnc21 (single isomer, unassigned) [Example 2] : ____ 8.12

Using the record for CC(c1cc(-c2ccccc2F)no1)n1cc(-c2ccc3c(c2)C(=O)N(C)C3)c2c(N)ncnc21 (stereo not shown) [Example 101] , report its pEC50. 5.39

pEC50 lookup needed for CC(c1cn(-c2ccccc2F)nn1)n1cc(C2COC2)c2c(N)ncnc21 (stereo not shown) [Example 250] , thanks. 5.66

---

# assay.target: recombinant F508del V470 CFTR in Fischer rat thyroid (FRT) cells (Homo sapiens, UniProt P13569, DEL508-508)
# measurement.protocol: FRT ion flux assay of F508del CFTR potentiation
# condition.context: FRT cells expressing F508del V470 CFTR, forskolin 20 uM, 27° C. pre-incubation
pEC50: −log10 of the molar value.
Criterion: pEC50 meeting or surpassing 7. Met: satisfied. Not met: not satisfied.

Could you please find out whether COc1ncc(-c2c(C#N)n(C(C)c3cc(-c4ccccc4F)no3)c3ncnc(N)c23)cn1 (single isomer, unassigned) [Example 15] has pEC50 that meets 7 or exceeds it? satisfied

Threshold query (pEC50 >= 7) on CCC(c1cn(-c2cc(F)ccc2F)nn1)n1cc(-c2cc(F)cnc2OC)c2c(N)ncnc21 (single isomer, unassigned; enantiomer 1) [Example 171] satisfied

Please tell me: is the compound "Nc1ncnc2c1c(-c1ncco1)cn2Cc1cn(-c2ccccc2F)nn1" at or over 7 in terms of pEC50? not satisfied

Decide: is the reported value of pEC50 for CC(c1cn(-c2ccccc2F)nn1)n1cc(-c2ccc(C#N)c(F)c2)c2c(N)ncnc21 (single isomer, unassigned; enantiomer 2) [Example 116] equal to or greater than 7? satisfied

hey, is pEC50 for this one >= 7? COCC(c1cn(-c2ccccc2F)nn1)n1cc(-c2cccnc2OC)c2c(N)ncnc21 (stereo not drawn) not satisfied

Identify whether the reported pEC50 of the following compound is 7 or greater: CC(c1cc(-c2ccccc2F)no1)n1cc(-c2ccc(Cl)cc2)c2c(N)ncnc21 (single isomer, unassigned; enantiomer 1) [Example 181] not satisfied
